Data origin: PubChem BioAssay AID248

Tested on: L1210 leukemia ip in BDF1 mice, survival T/C
assayRemarks: NCI In Vivo Anticancer Drug Screen. Data for tumor model L1210 Leukemia (intraperitoneal) in B6D2F1 (BDF1) mice
measurementConditions: endpoint: mean survival time; dose: 100.0 mg/kg/injection; schedule: Q01DX001 (ip); vehicle: Klucel (hydroxypropylcellulose) (HPC); higher = longer survival
Toxic doses and inconclusive results are not listed.
quantity: T/C

compound	T/C
O=C1CC2CC(=O)CC2C1 (configuration not stated)	104 % of control
O=[N+]([O-])c1ccc(N2CCCC2)cc1	97 % of control
CC(=O)N1CC(=O)NC1=S	115 % of control
O=C1CCc2nc(=O)c3c4ccccc4ccc3n21	94 % of control
Nc1nc(-c2cccc(NC(=O)c3ccc(S(=O)(=O)F)cc3)c2)nc2[nH]ncc12	86 % of control

Summary for this compound, O=C(NCCCl)NC1CCCc2ccccc21 (configuration not stated) : T/C is 105 % of control

Form field T/C, entry O=S(c1ccc(Cl)cc1)N(OCc1ccccc1)S(=O)c1ccc(Cl)cc1 (configuration not stated) : 100 % of control

----------
Tested on: L1210 leukemia ip in BDF1 mice, survival T/C
assayRemarks: NCI In Vivo Anticancer Drug Screen. Data for tumor model L1210 Leukemia (intraperitoneal) in B6D2F1 (BDF1) mice
measurementConditions: endpoint: mean survival time; dose: 100.0 mg/kg/injection; schedule: Q01DX009 (ip); vehicle: other; higher = longer survival
Toxic doses and inconclusive results are not listed.
Each entry below lists one item and its recorded T/C value.

Below are worked cases with known answers.
compound	measurementTarget	T/C
COc1cccc(CN(CCC(=O)O)Cc2cccc(OC)c2)c1	L1210 leukemia ip in BDF1 mice, survival T/C	100 % of control
CC1CC(C)(C)NC(=O)O1 (stereo unspecified)	L1210 leukemia ip in BDF1 mice, survival T/C	92 % of control
COC(=O)C1(C)CSCCC1=O (stereo unspecified)	L1210 leukemia ip in BDF1 mice, survival T/C	94 % of control
N#Cc1nccnc1Cl	L1210 leukemia ip in BDF1 mice, survival T/C	109 % of control
CC(=O)N(CC(=O)O)Cc1ccccc1	L1210 leukemia ip in BDF1 mice, survival T/C	100 % of control

Moving on to another compound below.
Reported T/C of `CCCCN(C)/N=N/c1nc[nH]c1C(N)=O` : 90 % of control

----------
// reported T/C for each item listed
System: L1210 leukemia ip in BDF1 mice, survival T/C
assayRemarks: NCI In Vivo Anticancer Drug Screen. Data for tumor model L1210 Leukemia (intraperitoneal) in B6D2F1 (BDF1) mice
measurementConditions: endpoint: mean survival time; dose: 100.0 mg/kg/injection; schedule: Q01DX001 (ip); vehicle: saline; higher = longer survival
Inconclusive results and toxic doses are left out.

Study these solved cases before continuing.
molecule	T/C
COc1cc2c(O)cc(C(=O)OC(C)(C)C)c(-c3cc(OC)c(OC)c(OC)c3)c2cc1OC	97 % of control
O=[N+]([O-])/C(=C/c1ccccc1)c1ccccc1	108 % of control
CCCCCCC(CO)CO	89 % of control
CC(=O)Oc1ccccc1/C=C\C=O	103 % of control
O=C(OCC(O)C(O)C(O)C(SCc1ccccc1)SCc1ccccc1)c1ccc([N+](=O)[O-])cc1 (stereo unspecified)	93 % of control
O=C(OCC1OCOC1C1OCOC1COC(=O)c1ccccc1)c1ccccc1 (stereo unspecified)	96 % of control

The recorded T/C for entry `COc1cc(C[N+]23CC[N+](Cc4cc(OC)c(OC)c(OC)c4)(CC2)C3)cc(OC)c1OC` equals 101 % of control

Per the record, `O=C(CC(=O)c1ccccc1)Nc1ccccn1` has T/C of 101 % of control

For record O=C1OC(n2ccc3ccccc32)c2ccccc21 (stereo unspecified) the listed T/C is 105 % of control

Briefly, T/C measured for `Cc1ccc(N=NC2C(=O)c3ccccc3C2=O)cc1` : 100 % of control

----------
Documented T/C across a set of molecules
Tested on: L1210 leukemia ip in BDF1 mice, survival T/C
assayRemarks: NCI In Vivo Anticancer Drug Screen. Data for tumor model L1210 Leukemia (intraperitoneal) in B6D2F1 (BDF1) mice
measurementConditions: endpoint: mean survival time; dose: 50.0 mg/kg/injection; schedule: Q04DX002 (ip); vehicle: saline; higher = longer survival
Toxic doses and inconclusive results are not listed. Peptide text beside a SMILES is read from it.

Answered cases to consult:
molecule	T/C
COc1cc2cc3c4cc(OC)c(OC)cc4cc[n+]3c(C)c2cc1OC	120 % of control
C=CCc1cc(Nc2c3ccc(Cl)cc3nc3ccc(OC)cc23)cc(CN(CC)CC)c1O	106 % of control
CCOC(=O)N1C2OC(C(COC(C)=O)=C2COC(C)=O)N1C(=O)OCC	99 % of control

Field T/C (entry NC(N)=NCCCC(N)C(=O)NC(CCC(=O)O)C(=O)O (stereo not drawn) (H-Arg-Glu-OH; configuration not given here) ) reads 121 % of control

Record C1=NC(c2ccccc2)=CN(C2CCCCCCC2)C1(c1ccccc1)C1CCCCCCC1 (stereo not given) , field T/C: 99 % of control

----------
Listed compounds paired with reported T/C
Test system: L1210 leukemia ip in BDF1 mice, survival T/C
assayRemarks: NCI In Vivo Anticancer Drug Screen. Data for tumor model L1210 Leukemia (intraperitoneal) in B6D2F1 (BDF1) mice
measurementConditions: endpoint: mean survival time; dose: 400.0 mg/kg/injection; schedule: Q01DX001 (ip); vehicle: carboxymethylcellulose (CMC); higher = longer survival
Toxic doses and inconclusive results are not listed.

Sample records with T/C:
compound	T/C
O=C(/C(=C/c1ccc(F)cc1)c1ccccc1)c1ccc(O)cc1	94 % of control
Nc1nc2[nH]ncc2c(=O)[nH]1	96 % of control
Cc1nccnc1N/N=C\c1ccc(N(CCCl)CCCl)cc1	93 % of control
O=c1c(N(CCO)CCO)cn(C(c2ccccc2)(c2ccccc2)c2ccccc2)c(=O)n1C(c1ccccc1)(c1ccccc1)c1ccccc1	96 % of control
S=P(NCCCCCCNP(=S)(N1CC1)N1CC1)(N1CC1)N1CC1	119 % of control
CC[CH2][Ge]([CH2]CC)([CH2]CC)[O][Ge]([CH2]CC)([CH2]CC)[CH2]CC	105 % of control
CON(C)c1nc(Cl)nc(N(C)OC)n1	107 % of control
O=C1CCCC2CCCC12 (stereo not given)	93 % of control

Record `CCCCCCCCCCCCOB(OCCCCCCCCCCCC)OCCCCCCCCCCCC` , field T/C: 94 % of control

Query `CC1=C(c2ccccc2)C(c2ccccc2)=CC1=O` yields T/C of 95 % of control

The value of T/C measured for the compound CC(C)CC1C(C(C)C)C=NN1C (stereo not given) turned out to be 94 % of control

Lab note: `CCCCCCC[CH2][Sn]([Cl])([Cl])[CH2]CCCCCCC` gave T/C of 96 % of control

In plain terms, `CSc1nc(N)c(N=Nc2ccc(S(=O)(=O)Nc3nnc(C)s3)cc2)c(=O)[nH]1` has a documented T/C of 101 % of control

T/C reading for COC(=O)CC(=O)/C(=C/C(C/C=C(\C(=O)CC(=O)OC)C(=O)OC)OC)C(=O)OC (stereo not given) : 100 % of control

Record summary for `COc1ccc(CCNC(=O)Cc2ccc(O)cc2)cc1OC` : reported T/C = 96 % of control

Measured T/C of `CCOC(=O)NS(=O)(=O)[N+](CC)(CC)CC` : 100 % of control

Looking up `Cc1cccnc1NC(=O)NCCCl` , I see its T/C listed as 103 % of control

----------
Test system: L1210 leukemia ip in BDF1 mice, survival T/C
assayRemarks: NCI In Vivo Anticancer Drug Screen. Data for tumor model L1210 Leukemia (intraperitoneal) in B6D2F1 (BDF1) mice
measurementConditions: endpoint: mean survival time; dose: 200.0 mg/kg/injection; schedule: Q01DX001 (ip); vehicle: saline; higher = longer survival
Inconclusive results and toxic doses are left out.
quantity: T/C

Guide cases for T/C, answers given:
compound	T/C
CC1(C)CCCC2(C)C(C(=O)O)C3CCC45OC3(CC12)OC(=O)C4C1(C)CCCC(C)(C)C1CC5=O (centres undefined)	107 % of control
Cc1ccc(N=NC2C(=O)c3ccccc3C2=O)cc1	97 % of control
CCOC(=O)C1C(=O)CC(C)(O)C(C(=O)OCC)C1c1ccccc1 (centres undefined)	106 % of control

Observed T/C on L1210 leukemia ip in BDF1 mice, survival T/C, entry CC1(CS(=O)(=O)c2ccccc2)C(=O)C2CCC1C2 (centres undefined) , equals 98 % of control

The compound `COc1ccc(CCN=C2C3CC4CC(C3)CC2C4)cc1OC` on L1210 leukemia ip in BDF1 mice, survival T/C: T/C was 98 % of control

L1210 leukemia ip in BDF1 mice, survival T/C data for NCCCC(N)C(=O)O (centres undefined) ; its T/C: 102 % of control

Note to self: T/C of Nc1ncnc2c1ncn2C1OC(CO)C(O)C(O)C1O (centres undefined) with L1210 leukemia ip in BDF1 mice, survival T/C was 100 % of control [middle of 4 runs]

Tested system L1210 leukemia ip in BDF1 mice, survival T/C; T/C recorded for `CCOc1cc2cc(C(=O)O)sc2cc1OCC` was 110 % of control

For the compound `CCOP(=O)(Cc1c(Cl)c(Cl)c(CP(=O)(OCC)OCC)c(Cl)c1Cl)OCC` , the measured T/C on L1210 leukemia ip in BDF1 mice, survival T/C was 98 % of control
